system: K24384-001-R-PDC complex spheroid viability; test: Anticancer human tumor K24384-001-R-PDC patient-derived pancreatic adenocarcinoma cell line growth inhibition; settings: second compound 3.16 µM; first compound 1 µM; hits give low values
# note: exactly 70% is not below, so it is rule not met; use rule met for viability, T/C strictly under it

// known answers, use as guide
CC1COCCN1c1cc(-c2ccnn2C)c2ccnc(-c3ccn[nH]3)c2n1 (configuration not stated) + NC1CC1c1ccc(-c2cccc(O)c2)cc1
rule met
O=C(C=Cn1cnc(-c2cc(C(F)(F)F)cc(C(F)(F)F)c2)n1)NNc1cnccn1 + NC1CC1c1ccc(-c2cccc(O)c2)cc1
rule met
CC1COCCN1c1cc(-c2ccnn2C)c2ccnc(-c3ccn[nH]3)c2n1 (configuration not stated) + NC1CCC(NC2CC2c2ccccc2)CC1
rule met
O=C(c1cc(Cc2n[nH]c(=O)c3ccccc23)ccc1F)N1CCN(C(=O)C2CC2)CC1 + NC1CCC(NC2CC2c2ccccc2)CC1
rule not met

# evaluate next
(Q) Does the reported viability, T/C of Nc1ncn(C2CC(O)C(CO)O2)c(=O)n1 (configuration not stated) + NC1CC1c1ccc(-c2cccc(O)c2)cc1 stay below 70%?
(A) rule not met

====

Below is a list of entries, each paired with its recorded viability, T/C value.
tested on: K24384-001-R-PDC complex spheroid viability; assay: Anticancer human tumor K24384-001-R-PDC cell line growth inhibition; conditions: second compound 1 µM; first compound 0.316 µM; hits give low values;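 also: spheroids exposed to agents for seven days before luminescence viability reading; 100% = DMSO vehicle control viability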
Number in %, nothing else.

# count of solved cases: 2
O=C(c1cc(Cc2n[nH]c(=O)c3ccccc23)ccc1F)N1CCN(C(=O)C2CC2)CC1 + NC1CC1c1ccc(-c2cccc(O)c2)cc1
72.6
COc1ccc([C@@H](O)c2cc(-c3ncnc4cc(N5CCOCC5)ccc34)c(F)cc2Cl)nn1 + NC1CCC(NC2CC2c2ccccc2)CC1
79.2

(Q) Provide one value: measured viability, T/C of O=C(C=Cn1cnc(-c2cc(C(F)(F)F)cc(C(F)(F)F)c2)n1)NNc1cnccn1 + NC1CC1c1ccc(-c2cccc(O)c2)cc1
(A) 22.7

(Q) Provide one value: measured viability, T/C of CC1COCCN1c1cc(-c2ccnn2C)c2ccnc(-c3ccn[nH]3)c2n1 (centres undefined) + NC1CCC(NC2CC2c2ccccc2)CC1
(A) 47.5

====

Tested on: K24384-001-R-PDC complex spheroid viability
Test: Anticancer human tumor K24384-001-R-PDC cell line growth inhibition; active = viability on the fitted dose curve at most 10% of control; inactive = the rest;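 also: spheroids exposed to agents for seven days before luminescence viability reading; 100% = DMSO vehicle control viability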
Conditions: second compound 3.16 µM; first compound 0.1 µM
Description: Multicellular complex tumor spheroid response to LSD1 Inhibitor Iadademstat in combination with a variety of drugs and investigational agents in selected tumor cell lines The current study was undertaken to assess response to LSD1 inhibitors in combination with standard-of-care drugs and investigational agents in solid tumor complex spheroid models as well as in the K-562 leukemia. […] Compounds. […] If the clinical Cmax for an agent had not been determined, the highest concentration tested was 10 microM. […]
Parameter call: string, one of true (1) (active), false (0) (inactive)

CC(C)CC(NC(=O)CNC(=O)c1cc(Cl)ccc1Cl)B1OC(=O)CC(CC(=O)O)(C(=O)O)O1 (stereo unspecified) + NC1CCC(NC2CC2c2ccccc2)CC1
true (1)
CC[C@@]1(O)C(=O)OCc2c1cc1n(c2=O)Cc2cc3c(CN(C)C)c(O)ccc3nc2-1 + NC1CC1c1ccc(-c2cccc(O)c2)cc1
false (0)
CC1(C)CCC(CN2CCN(c3ccc(C(=O)NS(=O)(=O)c4ccc(NCC5CCOCC5)c([N+](=O)[O-])c4)c(Oc4cnc5[nH]ccc5c4)c3)CC2)=C(c2ccc(Cl)cc2)C1 + NC1CC1c1ccc(-c2cccc(O)c2)cc1
false (0)
COc1cc(Nc2ncc3c(n2)-c2ccc(Cl)cc2C(c2c(F)cccc2OC)=NC3)ccc1C(=O)O + NC1CC1c1ccc(-c2cccc(O)c2)cc1
false (0)
CC1COCCN1c1cc(C2(S(C)(=N)=O)CC2)nc(-c2ccnc3[nH]ccc23)n1 (stereo unspecified) + NC1CCC(NC2CC2c2ccccc2)CC1
false (0)

(Q) Could you check what this test reported for CC(C)c1c(-c2ccccc2)nc2c(C#N)c[nH]n2c1=O + NC1CCC(NC2CC2c2ccccc2)CC1 ?
(A) false (0)
